System: CDS-ZH002 direct (CIC-DUX4 sarcoma cells right after isolation)
Assay: differential drug sensitivity score (dDSS) relative to sarcoma reference cohort mean DSS (DSS units (0-100 scale difference)); higher = more selective sensitivity than reference sarcomas
Details: exposure time: 72 h; concentration range: 10-10000 nM
# if value of differential drug sensitivity score reaches 1, tag label 1; if it stays below, tag label 0

{"Compound": "CCN(c1cc(-c2ccc(CN3CCOCC3)cc2)cc(C(=O)NCc2c(C)cc(C)[nH]c2=O)c1C)C1CCOCC1", "Class assignment": "label 0"}
{"Compound": "Nc1cccc2c1CN(C1CCC(=O)NC1=O)C2=O (stereo unspecified) [Lenalidomide]", "Class assignment": "label 0"}

Let us examine a further case.
Query block: Identify whether the reported differential drug sensitivity score of the following compound is 1 or greater: CCn1cc(-c2cccc(C(F)(F)F)c2)c2sc(C(=N)NC3CCS(=O)(=O)CC3)cc2c1=O
Result block: label 0

###

System: CDS-ZH002 direct
Assay: differential drug sensitivity score (dDSS) relative to sarcoma reference cohort mean DSS (DSS units (0-100 scale difference)); higher = more selective sensitivity than reference sarcomas
Conditions: exposure time: 72 h; concentration range: 10-10000 nM
molecules and their reported differential drug sensitivity score
Would you mind answering with just the numeric figure?

// known answers, use as guide
{"Molecule": "COc1cc(C(=O)O)ccc1NC(=O)[C@@H]1N[C@@H](CC(C)(C)C)[C@](C#N)(c2ccc(Cl)cc2F)[C@H]1c1cccc(Cl)c1F [Idasanutlin]", "Observable": "differential drug sensitivity score", "Observed result": 10}
{"Molecule": "C[C@@H]1COCCN1c1cc(C2([S@](C)(=N)=O)CC2)nc(-c2cc[nH]c3nccc2-3)n1 [Ceralasertib]", "Observable": "differential drug sensitivity score", "Observed result": -2.5}
{"Molecule": "Cc1ccc(Nc2nccc(N(C)c3ccc4c(C)n(C)nc4c3)n2)cc1S(N)(=O)=O [Pazopanib]", "Observable": "differential drug sensitivity score", "Observed result": -1.4}

differential drug sensitivity score measured on Cc1ccc(C(=O)Nc2ccc(CN3CCN(C)CC3)c(C(F)(F)F)c2)cc1C#Cc1cnc2cccnn12 [Ponatinib] = -3.1

Lab note: CC1(C)CCC(CN2CCN(c3ccc(C(=O)NS(=O)(=O)c4ccc(NCC5CCOCC5)c([N+](=O)[O-])c4)c(Oc4cnc5[nH]ccc5c4)c3)CC2)=C(c2ccc(Cl)cc2)C1 [Venetoclax] gave differential drug sensitivity score of -3.5

Record summary for CN(c1ncccc1CNc1nc(Nc2ccc3c(c2)CC(=O)N3)ncc1C(F)(F)F)S(C)(=O)=O : reported differential drug sensitivity score = 3.8

Noted for Cc1ccc2nc(NCCN)c3ncc(C)n3c2c1 : its differential drug sensitivity score reads 2.2

###

Tested on: CDS-ZH002 direct
Test: differential drug sensitivity score (dDSS) relative to sarcoma reference cohort mean DSS (DSS units (0-100 scale difference)); higher = more selective sensitivity than reference sarcomas
Settings: exposure time: 72 h; concentration range: 10-10000 nM
Observable: differential drug sensitivity score

# count of solved cases: 2
{"Smiles entry": "CC(C)(C)c1cc(NC(=O)Nc2ccc(-c3cn4c(n3)sc3cc(OCCN5CCOCC5)ccc34)cc2)no1", "Observable": "differential drug sensitivity score", "Observed result": 8.3}
{"Smiles entry": "CC(=O)Nc1cccc(-n2c(=O)n(C3CC3)c(=O)c3c(Nc4ccc(I)cc4F)n(C)c(=O)c(C)c32)c1", "Observable": "differential drug sensitivity score", "Observed result": -3.5}

So, CN1CCN(c2ccc(C(=O)Nc3n[nH]c4ccc(Cc5cc(F)cc(F)c5)cc34)c(NC3CCOCC3)c2)CC1 ? Its differential drug sensitivity score was -2.3

Form: compound = CCc1c2c(nc3ccc(OC(=O)N4CCC(N5CCCCC5)CC4)cc13)-c1cc3c(c(=O)n1C2)COC(=O)[C@]3(O)CC ; differential drug sensitivity score = -5.3

Each recorded value in this set is attributed to the supplement of paper PMC12370961.
